- test_method_notes: drug combination growth inhibition, ovarian cancer – cell-based, oncology-focused library, rucaparib conditional, profiling panel (AID 1508598)
- condition_description: patient-derived ovarian cancer cells, CellTiter-Glo viability, 144 h; at 1.25 µM; OCI-P5x cells; with rucaparib 20 µM; stronger effect = lower value; 100% = cells with rucaparib alone
Labelling field: enter Criterion met if recorded viability is less than 90%. Enter Criterion not met if it equals or exceeds that cut-off.

Example entries and their recorded answers appear below.
- molecule: "O=C(O)CCC1CCC(c2cc(F)ccc2F)(S(=O)(=O)c2ccc(Cl)cc2)CC1 (stereo unspecified)"
  class_assignment: "Criterion not met"
- molecule: "OCCn1cc(-c2cnc3nnn(Cc4ccc5ncccc5c4)c3n2)cn1"
  class_assignment: "Criterion not met"
- molecule: "CC(C)[C@H](C(=O)Nc1ccc(C(=O)NO)cc1)c1ccccc1"
  class_assignment: "Criterion met"
- molecule: "CS(=O)(=O)N1CCN(Cc2cc3nc(-c4cccc5[nH]ncc45)nc(N4CCOCC4)c3s2)CC1"
  class_assignment: "Criterion met"

(Q) For O=C(O)c1ccc2c(c1)nc(Nc1cccc(Cl)c1)c1ccncc12 , is the recorded viability below the cut-off of 90%?
(A) Criterion met

(Q) Same thing, different molecule: O=C(NC1CCNCC1)c1[nH]ncc1NC(=O)c1c(Cl)cccc1Cl
(A) Criterion met

###

- test_method_notes: JHH-DIPG-1 glioma cell viability, MIPE5.0 library, CellTiter-Glo luminescence, qHTS (AID 1347067);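 further: cells exposed to compound for 48 hours before readout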
- condition_description: JHH-DIPG-1 glioma viability, CellTiter-Glo ATP luminescence
Results filed as inconclusive are left out. Active and inactive are the calls of the source. Cut-off not given; nearly all actives show AC50 up to about 26 µM.
In this exercise, the only acceptable responses are YES (active), NO (inactive)

- compound: "COc1nc(N)nc2c1ncn2C1OC(CO)C(O)C1O (stereo not drawn)"
  class_assignment: "NO"
- compound: "CCn1c(=O)c(-c2ccc(Cl)cc2Cl)cc2cnc(Nc3ccc(N4CCNCC4)c(F)c3)nc21"
  class_assignment: "NO"
- compound: "Cc1[nH]nc2ccc(-c3cncc(OC[C@@H](N)Cc4ccccc4)c3)cc12"
  class_assignment: "YES"

(Q) Per the records of this test, what outcome belongs to COc1ccccc1C(=O)Nc1cc2c(cc1N1CCNC[C@H]1C)n(C)c(=O)n2C ?
(A) NO

(Q) For C=CCNC1=C2C[C@@H](C)C[C@H](OC)[C@H](O)[C@@H](C)/C=C(\C)[C@H](OC(N)=O)[C@@H](OC)/C=C\C=C(/C)C(=O)NC(=CC1=O)C2=O then?
(A) YES

(Q) Follow-up item: CCCCC(C)(C)[C@H](O)/C=C/[C@H]1[C@H](O)CC(=O)[C@@H]1C/C=C\CCCC(=O)O
(A) YES

(Q) Please give the result for NC(=O)c1noc([C@H](CCCC2CCCCC2)CC(=O)NO)n1 too.
(A) NO

(Q) Try the compound Nc1ccn([C@@H]2O[C@H](CO)[C@@H](O)C2(F)F)c(=O)n1
(A) NO

(Q) Entry CN1CC(=O)NC1=NC(=O)Nc1cccc(Cl)c1 please
(A) NO

###

- test_method_notes: viability loss with induced miR-34 in A549 – imaging, A549 dox-inducible miR-34, nuclei and caspase counts, primary screen (AID 1347080)
- condition_description: A549 miR-34 inducible, Hoechst nuclei count, 48 h; measured here: relative caspase fold change +Dox/-Dox
reported_endpoint: fold change
Could you respond with only the numeric value?

- compound: "Cn1cc(-c2ccc3ncc(Cc4ccc5ncccc5c4)n3n2)cn1"
  fold change: 0.902
- compound: "COc1ccc2cc(-c3nc(-c4ccc(S(C)=O)cc4)[nH]c3-c3ccncc3)ccc2c1 (stereo not drawn)"
  fold change: 0.892

Now look at this one.
(Q) Please give the measured fold change for this compound: CC1COC2(CCN(c3nc(=O)c4cc(C(F)(F)F)cc([N+](=O)[O-])c4s3)CC2)O1 (stereo not drawn)
(A) 0.894

###

- test_method_notes: drug combination growth inhibition, ovarian cancer – cell-based, oncology-focused library, rucaparib conditional, profiling panel (AID 1508598)
- condition_description: patient-derived ovarian cancer cells, CellTiter-Glo viability, 144 h; at 0.00488 µM; OCI-C5x cells; with rucaparib 10 µM; 100% = cells with rucaparib alone
Active and inactive are the calls of the source.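 How the source made its calls: active means normalized viability below 100% at a tested concentration; inactive means the rest.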
API: response.call in 1 = active, 0 = inactive

Field: example entries. Status: answers known.
- molecule: "COc1cc2c(Oc3ccc4[nH]c(C)cc4c3F)ncnc2cc1OCCCN1CCCC1"
  class_assignment: 0
- molecule: "c1ccc2c(CCNc3ccc(Nc4ccncc4)cc3)c[nH]c2c1"
  class_assignment: 0
- molecule: "CC(C)(C)Cn1c(N)nc2ccc(-c3[nH]c(C(C)(C)C)nc3-c3ccc(F)cc3)nc21"
  class_assignment: 0
- molecule: "NC(=O)C1CCCc2c1[nH]c1ccc(Cl)cc21 (stereo not given)"
  class_assignment: 0
- molecule: "O=C(Nc1cccc(Cl)c1)Nc1ncc(CCNc2ncnc3ccsc23)s1"
  class_assignment: 1

(Q) Identify the outcome logged in this assay for the molecule shown: CS(=O)(=O)c1cccc(CNc2nc(Nc3ccc4c(c3)CCC(=O)N4)ncc2C(F)(F)F)c1
(A) 0

(Q) Could you do the same for Nc1nc(Nc2ccc(S(N)(=O)=O)cc2)nn1C(=O)c1c(F)cccc1F , please?
(A) 1

(Q) How about CN1CCN(c2ccc(OC(F)(F)F)c(Nc3ncc4c(n3)-c3c(c(C(N)=O)nn3CCO)CC4)c2)CC1 ?
(A) 0

(Q) Then this molecule: CCN(CCO)CCCOc1ccc2c(Nc3cc(CC(=O)Nc4cccc(F)c4)[nH]n3)ncnc2c1
(A) 0

(Q) Cool, now Cc1cccc(-c2nn3c(c2-c2ccnc4ccc(C(N)=O)cc24)CCC3)n1
(A) 0

###

- test_method_notes: drug combination growth inhibition, ovarian cancer – cell-based, oncology-focused library, rucaparib conditional, profiling panel (AID 1508598)
- condition_description: patient-derived ovarian cancer cells, CellTiter-Glo viability, 144 h; at 0.0781 µM; OCI-C5x cells; with rucaparib 10 µM; 100% = cells with rucaparib alone
The source made the active and inactive calls.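 The calls were made as follows: active = normalized viability below 100% at a tested concentration; inactive = the rest.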
Return exactly one item of active, inactive

The examples below pair each entry with its known result.
- compound: "C=CCn1c(=O)c2cnc(Nc3ccc(N4CCN(C)CC4)cc3)nc2n1-c1cccc(C(C)(C)O)n1"
  class_assignment: "inactive"
- compound: "CC(C)C[C@H](NC(=O)CNC(=O)c1cc(Cl)ccc1Cl)B(O)O"
  class_assignment: "active"
- compound: "COc1ccc(COc2cc3oc(=O)c4cc(C(C)O)ccc4c3cc2OC)cc1 (centres undefined)"
  class_assignment: "inactive"
- compound: "O=C(NOC[C@H](O)CO)c1ccc(F)c(F)c1Nc1ccc(I)cc1F"
  class_assignment: "inactive"

(Q) // outcome(item) with item = CC[C@H](Nc1ncnc2nc[nH]c12)c1nc2cccc(F)c2c(=O)n1-c1ccccc1
(A) inactive

(Q) Now this one: CS(=O)(=O)N1CCc2c(-c3cnc(N)nc3)nc(N3CCOCC3)nc21
(A) active

(Q) What would you report for NC(=O)c1ccc(I)c([N+](=O)[O-])c1 ?
(A) inactive

(Q) And then C/C(=C\C(=O)Nc1ccccc1C(=O)O)c1ccc2ccccc2c1 , what is it?
(A) active

(Q) Another compound: Cc1cc(CS(=O)(=O)c2ccccc2)cc(OCc2ccc(CN3CCC[C@@H]3CO)cc2)c1
(A) inactive

(Q) One more compound: COc1ccc(S(=O)(=O)Nc2cccnc2Nc2ccc(O)cc2)cc1
(A) inactive

###

- test_method_notes: growth inhibition of DIPG cells – cell-based, MIPE5.0 library, qHTS (AID 1347068);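 on IC50: cells exposed to compound for 48 hours before viability readout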
- condition_description: SU-DIPG-XXV viability
Inconclusive results are not listed. The source made the active and inactive calls. No cut-off is given here; in the data, nearly all actives have IC50 up to about 30 µM.
Pick one and only one: y for active, n for inactive

Reference set (2 entries):
- smiles_code: "CN[C@@H]1C[C@H]2O[C@@](C)([C@@H]1OC)n1c3ccccc3c3c4c(c5c6ccccc6n2c5c31)C(=O)N[C@H]4O"
  class_assignment: "y"
- smiles_code: "C[C@H]1C[C@@H](n2c(Nc3ccc(OC(F)(F)F)cc3)nc3cc(CCC(=O)O)ccc32)CC(C)(C)C1"
  class_assignment: "n"

Now look at this entry.
(Q) Query: recorded result category for CCOC(=O)c1c(CSc2ccccc2)n(C)c2cc(Br)c(O)c(CN(C)C)c12 in this test
(A) n

###

- test_method_notes: viability loss in pontine glioma line – cell-based, SU-DIPG-XVII, MIPE5.0, CellTiter-Glo, qHTS, dose response (AID 1347060);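 on AC50: cells exposed to compound for 48 hours before viability readout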
- condition_description: CellTiter-Glo ATP luminescence
Records with an inconclusive call do not appear. Activity calls are given as the source filed them. No cut-off is given here; in the data, nearly all actives have AC50 up to about 26 µM.
Respond using exactly one of the listed classes: active, inactive

- molecule: "O=C(Nc1ccc2c(c1)CCN(Cc1ncn[nH]1)C2)c1ccccc1-c1ccc(C(F)(F)F)cc1"
  class_assignment: "inactive"
- molecule: "O=C(O)CCCc1c[nH]c2ccccc12"
  class_assignment: "inactive"
- molecule: "CC(C)(O)[C@H]1CC[C@@](C)([C@H]2[C@@H](O)C[C@@]3(C)[C@@H]4C[C@H](O[C@@H]5O[C@H](CO)[C@@H](O)[C@H](O)[C@H]5O)[C@H]5C(C)(C)[C@@H](O[C@@H]6OC[C@@H](O)[C@H](O)[C@H]6O)CC[C@@]56C[C@@]46CC[C@]23C)O1"
  class_assignment: "inactive"
- molecule: "CC1(C)OC2=C(C(=O)c3ccccc3C2=O)[C@H](NCc2ccccc2)[C@@H]1O"
  class_assignment: "active"
- molecule: "COc1c(Nc2ncc(Cl)c(N[C@H]3[C@H](C(N)=O)[C@@H]4C=C[C@@H]3C4)n2)ccc2c1CCC(N1CCOCC1)CC2 (stereo partly specified)"
  class_assignment: "active"

(Q) Just curious, what result did COc1ccc(Cl)cc1-c1cc(=O)[nH]c(=S)n1CC(N)=O get here?
(A) inactive

(Q) For O=C(O)/C(S)=C/c1ccc(I)cc1 then?
(A) inactive

(Q) What do we get for C#CCN(C)CC1=Cc2ccccc2Oc2ccccc21 ?
(A) inactive

(Q) Continue with CC(=O)c1c(C)c2cnc(Nc3ccc(N4CCNCC4)cn3)nc2n(C2CCCC2)c1=O
(A) active

(Q) Okay, and O=C(C[C@@H]1C/C=C\CCC(=O)O[C@H](c2ccccc2)CNC1=O)NCc1ccc(Cl)cc1 ?
(A) inactive

(Q) What do you get for c1ccc(CNc2nc(NCc3ccccc3)c3ccccc3n2)cc1 ?
(A) active
